Test system: SK-MEL-2 melanoma
experiment: NCI tumour cell line growth inhibition, 48 h
measureName: TGI (µM)
Numeric answer only, unit µM assumed.

// query Can you share its TGI? I mean this compound: "CS(=O)(=O)Nc1ccc(Nc2c3ccccc3nc3cc(Cl)ccc23)cc1"
// result 22.7

// query Can you share its TGI? I mean this compound: "CSC(=NCCCN=C(NS(=O)(=O)c1ccc(Cl)cc1)SC)NS(=O)(=O)c1ccc(Cl)cc1"
// result 43.6

// query Can you share its TGI? I mean this compound: "CCNc1nc(-c2ccc(Cl)c(OC)c2)c(-c2ccnc(NCCNS(=O)(=O)c3ccc(Cl)cc3)n2)s1"
// result 4.41

// query Can you share its TGI? I mean this compound: "Brc1ccc2c(c1)-c1ccccc1C1=NCCN12"
// result 4.18

// query Can you share its TGI? I mean this compound: "CCN(CC)CCCNc1nnc(C)c2[nH]c3ccccc3c12"
// result 33.3

###

For each entry below, report its TGI value.
System: SF-268 CNS
experiment: NCI tumour cell line growth inhibition, 48 h

// query Can you share its TGI? I mean this molecule: "Cc1[nH]n(C(=O)c2ccc(Cl)cc2)c(=O)c1/C=C1\C(O)=CC(=O)c2ccccc21"
// result > 100 µM

// query Can you share its TGI? I mean this molecule: "Cn1c(=O)c2c(n(C)c1=O)n1c(=O)c3ccccc3nc1n2C"
// result > 100 µM

// query Can you share its TGI? I mean this molecule: "Nc1c(/C=C/c2cc3cc(C4=NCCN4)ccc3o2)[nH]c2cc(C3=NCCN3)ccc12"
// result > 100 µM

###

For each entry below, report its TGI value.
Tested on: HCT-116 colon
experiment: NCI tumour cell line growth inhibition, 48 h

// query Can you share its TGI? I mean this compound: "CCOC(=O)c1ccc(-c2cccs2)[nH]1"
// result > 100 µM

// query Can you share its TGI? I mean this compound: "O=C(CCc1ccccc1)NCCc1ccc(O)c(O)c1"
// result > 66.7 µM

// query Can you share its TGI? I mean this compound: "COc1cc(/C=C/C(=O)c2c(-c3ccc(Cl)cc3)nc3sc(C)nn23)cc(OC)c1OC"
// result > 100 µM

// query Can you share its TGI? I mean this compound: "CCOC(=O)Oc1ccc2[nH]c3c(C)cc(N)c(C)c3c2c1"
// result > 100 µM

// query Can you share its TGI? I mean this compound: "CN1Cc2c(ccc3c2OCO3)[C@@H]2[C@H](O)Cc3cc4c(cc3[C@@H]21)OCO4"
// result > 44.7 µM

// query Can you share its TGI? I mean this compound: COC(=O)C(NC(=O)c1ccccc1)c1ccc(OC)c(I)c1 (stereo unspecified)
// result > 100 µM

###

Test system: MOLT-4 leukemia
experiment: NCI tumour cell line growth inhibition, 48 h
measureName: TGI (µM)
Numeric answer only, unit µM assumed.

// query Can you share its TGI? I mean this molecule: "O=C1COc2c(CCNCCN(C(=O)CCNCCc3ccc(Cl)c(Cl)c3)C3CCCCC3)ccc(O)c2N1"
// result 34.5

// query Can you share its TGI? I mean this molecule: "Brc1ccc2c(c1)-c1ccccc1C1=NCCN12"
// result 3.73

// query Can you share its TGI? I mean this molecule: CCCCCNC(=O)OC1CCn2c1nc1c2C(=O)C(C)=C(N2CC2)C1=O (centres undefined)
// result 43.8
